read-out: Early growth response protein 1 (EGR1) transcription factor, EGR1 (gene 1958); assay: LTEA_HepaRG_EGR1: Life Technologies and Expression Analysis (LTEA) Assay for Early growth response protein 1 (EGR1) transcription factor using HepaRG (AID 2283490); settings: mRNA level, 48 h; actives raise or lower the signal
Active and inactive are the calls of the source. How the source made its calls: active means hit-call score of the fitted dose curve at least 0.9, where 1 is the maximum; inactive means score below 0.9.
Select the correct class. Options are active, inactive and nothing else.

Exam item: Which outcome did this test record for the molecule CC(C)O.CC(C)O.OCCN(CCO)CCO.OCCN(CCO)CCO.[Ti] ?
Marked response: inactive

Exam item: Which outcome did this test record for the molecule COc1ccccc1N ?
Marked response: inactive

Exam item: Which outcome did this test record for the molecule CC(C)(C)c1ccccc1O ?
Marked response: inactive

Exam item: Which outcome did this test record for the molecule Clc1cccc(Cl)c1 ?
Marked response: inactive

Exam item: Which outcome did this test record for the molecule CCCCCCCCCCCCc1cccc(S(=O)(=O)O)c1 ?
Marked response: inactive

Exam item: Which outcome did this test record for the molecule O=C(O)C1(c2ccc3c(c2)OC[C@H](Cc2ccc(-c4ccccc4)cc2)[C@H]3O)CCCC1 ?
Marked response: active

Exam item: Which outcome did this test record for the molecule OCCN(CCO)CCO ?
Marked response: inactive

Exam item: Which outcome did this test record for the molecule Clc1cccc(Cl)c1Cl ?
Marked response: inactive

Exam item: Which outcome did this test record for the molecule CN(C)C(=S)S ?
Marked response: inactive

---

assay: CCTE_Harrill_HTTr_Apoptosis_MCF7: CCTE's 6-hour Apoptosis Assessment for the High-Throughput Transcriptomics (HTTr) Platform, in MCF-7 cells cultured in DMEM + 10% fetal bovine serum, Harrill Lab (AID 2284011)
Active and inactive are the calls of the source. How the source made its calls: active means hit-call score of the fitted dose curve at least 0.9, where 1 is the maximum; inactive means score below 0.9.
REPORTED_METRIC: outcome

COMPOUND	REPORTED_METRIC	VAL
C[C@H]1C(=O)O[C@@H]2CCN3CC=C(COC(=O)[C@](C)(O)[C@]1(C)O)[C@H]23	outcome	inactive
Cc1cc(C(C)(C)c2ccc(O)c(C)c2)ccc1O	outcome	inactive
CC(C)=CC1C(C(=O)OCc2cccc(Oc3ccccc3)c2)C1(C)C (stereo not given)	outcome	inactive
C[C@]12CC[C@@H](O)C[C@@H]1CC[C@@H]1[C@@H]2CC[C@]2(C)C(=O)CC[C@@H]12	outcome	inactive

Now look at this entry.
Lookup result for O=C(O)COc1ccc(Cl)cc1 ; measured outcome: inactive

---

experiment: CCTE_Shafer_MEA_dev_interburst_interval_mean: CCTE's Neural Network Formation Assay for Mean Interburst Interval, Shafer Lab (AID 2284046);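 further: well-mean interburst interval of bursting electrodes as AUC over four recording days; curve fitted for decrease in interburst interval relative to DMSO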
Activity calls are given as the source filed them. Rule for the calls: active = hit-call score of the fitted dose curve at least 0.9, where 1 is the maximum; inactive = score below 0.9.
Select the correct class. Options are T for active, F for inactive and nothing else.

Exam item: Which outcome did this test record for the compound FC(F)OCC(F)(F)C(F)(F)F ?
Marked response: F

Exam item: Which outcome did this test record for the compound OC(Cc1ccccc1Cl)(Cn1[nH]cnc1=S)C1(Cl)CC1 (stereo not given) ?
Marked response: T

Exam item: Which outcome did this test record for the compound CNC(=O)CSP(=O)(OC)OC ?
Marked response: F

Exam item: Which outcome did this test record for the compound C=CC(F)(C(F)(F)F)C(F)(F)C(F)(F)F (stereo not given) ?
Marked response: F

Exam item: Which outcome did this test record for the compound CC(C)[C@@H](Nc1ccc(C(F)(F)F)cc1Cl)C(=O)OC(C#N)c1cccc(Oc2ccccc2)c1 (stereo not given in full) ?
Marked response: F

---

test: CCTE_Shafer_MEA_dev_burst_rate: CCTE's Neural Network Formation Assay for Burst Rate, Shafer Lab (AID 2284042)
Activity calls are given as the source filed them. The calls were made as follows: active = hit-call score of the fitted dose curve at least 0.9, where 1 is the maximum; inactive = score below 0.9.
Select the correct class. Options are active, inactive and nothing else.

Exam item: Which outcome did this test record for the molecule O=S(=O)(F)C(F)(F)C(F)(F)C(F)(F)C(F)(F)F ?
Marked response: inactive

Exam item: Which outcome did this test record for the molecule Cc1ccccc1OP(=O)(Oc1ccccc1C)Oc1ccccc1C ?
Marked response: inactive

Exam item: Which outcome did this test record for the molecule C=CCOC(F)(C(F)(F)F)C(F)(F)F ?
Marked response: inactive

Exam item: Which outcome did this test record for the molecule CC1(C)[C@H](C(=O)O[C@H](C#N)c2cccc(Oc3ccccc3)c2)[C@@H]1/C=C(\Cl)C(F)(F)F ?
Marked response: inactive

Exam item: Which outcome did this test record for the molecule NC(=O)c1ccc(N)nc1 ?
Marked response: active

Exam item: Which outcome did this test record for the molecule OC(Cc1ccccc1Cl)(Cn1[nH]cnc1=S)C1(Cl)CC1 (configuration not stated) ?
Marked response: active

Exam item: Which outcome did this test record for the molecule CNC(=O)CSP(=O)(OC)OC ?
Marked response: inactive
